Values were extracted from paper PMC4072508.

# studySystem: T1, Mcl-1, Q07820
# T1 chain: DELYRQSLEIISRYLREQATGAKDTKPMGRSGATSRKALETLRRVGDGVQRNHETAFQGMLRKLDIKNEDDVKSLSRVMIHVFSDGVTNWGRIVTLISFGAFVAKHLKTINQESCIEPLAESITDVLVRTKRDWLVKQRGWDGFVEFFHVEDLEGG
# assayRemarks: peptide SPOT array, c-Myc-tagged receptor at 1 uM or 100 nM, anti-c-Myc-Cy3
Below, each entry is listed alongside its reported SPOT signal as a fraction of Bim BH3's signal on the same receptor and array.
reportedProperty: SPOT signal as a fraction of Bim BH3's signal on the same receptor and array

>  <binder>
HGTSSRIGSSMKSVLEVMAIGRTFEE [CPS1]

>  <recordedNumber>
0.02

$$$$
>  <binder>
EGPEVICAQILQGCAKQALEKLEEKR [NCAPD2]

>  <recordedNumber>
0.02

$$$$
>  <binder>
DNHKKKTVKMLEYLGKDVLHGVFNYL [CASP5]

>  <recordedNumber>
0.11

$$$$
>  <binder>
KGTAVAICRRLGIFLDTEDVAGKAYT [ATP2A3]

>  <recordedNumber>
0.16

$$$$
